Data origin, for the record: patent US20240327334A1

Tested on: SARS-CoV-2 replicon
Test: microbe, parasite or virus in culture
Type: cell-based
Conditions: Severe acute respiratory syndrome coronavirus 2, Huh-7
pEC50: −log10 of the molar value.
The compounds listed here are annotated with their pEC50.

The examples below pair each entry with its known result.
Cc1nn(C)c(C)c1-c1cc(C2(NC(=O)c3ccccc3CNC(=O)C(=O)N[C@@H](C)C#Cc3nccs3)CC2)cc2ccccc12 [Example 298]	> 6.00
C#CCNC(=O)C(=O)NCc1ccccc1C(=O)NC1(c2cccc3nn(C)cc23)CC1 [Example 342]	> 6.00
Cc1nn(C)cc1-c1cc(F)cc(C2(NC(=O)c3ccccc3CNC(=O)C(=O)NCC#N)CC2)c1 [Example 233]	< 5.00
CC(C)(O)Cn1cc(-c2cc(C3(NC(=O)c4ccccc4CNC(=O)C(=O)NCC#N)CC3)c3ccccc3c2)cn1 [Example 353]	> 6.00

Next:
Problem: Return value of pEC50 for input Cc1n[nH]cc1-c1cc(C2(NC(=O)c3ccccc3CNC(=O)C(=O)NCC#N)CC2)c2ccccc2c1 [Example 284] , no commentary.
Result: > 6.00

====

Below: a set of entries, each annotated with reported IC50.
Molecular target: SARS-CoV-2 Papain-like (PLpro) protease (Severe acute respiratory syndrome coronavirus 2, UniProt P0DTD1)
Assay: SARS-CoV-2 Papain-like (PLpro) protease biochemical enzyme inhibition assay (ubiquitin-fluorophore substrate, Ub-R110)
Conditions: Ub-R110 substrate; run in duplicate; read-out: PLpro IC50

Some compounds with known IC50 results, for comparison:
COc1cc(C2(NC(=O)c3ccccc3CNC(=O)C(=O)NC/C=C/c3ccccn3)CC2)cc2cn(C3CC3)nc12	100 to 1000 nM
N#CCNC(=O)C(=O)NCc1ccccc1C(=O)NC1(c2cc(-c3cnn(C4CC4)c3)nc3[nH]ccc23)CC1	100 to 1000 nM
O=C(NCC#Cc1nccs1)C(=O)NCc1ccccc1C(=O)NC1(c2cc(F)cc(-c3cnn(C4CC4)c3)c2F)CC1	< 100 nM
O=C(NC/C=C1\CCOC1=O)C(=O)NCc1ccccc1C(=O)NC1(c2cc(Br)cc3ccccc23)CC1	< 100 nM
C#CCNC(=O)C(=O)NCc1ccccc1C(=O)NC1(c2cc(Cl)cc(-c3cnco3)c2)CC1	< 100 nM

Problem: Kindly indicate its recorded IC50. Item: Cn1cc2cc(C3(NC(=O)c4ccccc4CNC(=O)C(=O)NCC#Cc4ccc(S(C)(=O)=O)cc4F)CC3)ccc2n1
Result: < 100 nM

Problem: # return recorded IC50 for input N#CCNC(=O)C(=O)NCc1ccccc1C(=O)NC1(c2ccc(F)c(Br)c2)CC1
Result: 100 to 1000 nM

Problem: Entry N#CCNC(=O)C(=O)NCc1ccccc1C(=O)NC1(c2cc(Cl)cc(-c3cnc(C(F)(F)F)nc3)c2)CC1 needs its IC50 filled in; supply it.
Result: 100 to 1000 nM

Problem: Quickly give me recorded IC50 for COc1cc(C2(NC(=O)c3ccccc3CNC(=O)C(=O)NC/C=C/c3ncccn3)CC2)cc2cn(C3CC3)nc12
Result: < 100 nM

Problem: Please give measured IC50 of the following entry: Cn1cc(C#CCNC(=O)C(=O)NCc2ccccc2C(=O)NC2(c3ccc4ccccc4c3)CC2)cn1
Result: > 10000 nM

Problem: Give a short answer stating reported IC50 for Cn1ncc2cc(C3(NC(=O)c4ccccc4CNC(=O)C(=O)NCC#Cc4nccs4)CC3)ccc21 .
Result: < 100 nM

Problem: Tell me its IC50 given Cn1cc2cc(C3(NC(=O)c4ccccc4CNC(=O)C(=O)NCC4CN(C#N)C4)CC3)ccc2n1 as the entry.
Result: 100 to 1000 nM

Problem: Input N#CCNC(=O)C(=O)NCc1ccccc1C(=O)NC1(c2cc(-c3cnn(C4CC4)c3)cc(C(F)(F)F)c2)CC1 , output reported IC50.
Result: < 100 nM

Problem: Dear colleague, please send me the reported IC50 for COC(=O)/C=C/CNC(=O)C(=O)NCc1cccc(F)c1C(=O)N[C@H](C)c1cccc2ccccc12 when you can.
Result: < 100 nM
